The reported numbers originate from patent US5474898A.

Molecular target: Drosophila octopamine receptor (Drosophila melanogaster, UniProt P22270)
Construct: membranes or whole cells
Sequence (P22270 27-601): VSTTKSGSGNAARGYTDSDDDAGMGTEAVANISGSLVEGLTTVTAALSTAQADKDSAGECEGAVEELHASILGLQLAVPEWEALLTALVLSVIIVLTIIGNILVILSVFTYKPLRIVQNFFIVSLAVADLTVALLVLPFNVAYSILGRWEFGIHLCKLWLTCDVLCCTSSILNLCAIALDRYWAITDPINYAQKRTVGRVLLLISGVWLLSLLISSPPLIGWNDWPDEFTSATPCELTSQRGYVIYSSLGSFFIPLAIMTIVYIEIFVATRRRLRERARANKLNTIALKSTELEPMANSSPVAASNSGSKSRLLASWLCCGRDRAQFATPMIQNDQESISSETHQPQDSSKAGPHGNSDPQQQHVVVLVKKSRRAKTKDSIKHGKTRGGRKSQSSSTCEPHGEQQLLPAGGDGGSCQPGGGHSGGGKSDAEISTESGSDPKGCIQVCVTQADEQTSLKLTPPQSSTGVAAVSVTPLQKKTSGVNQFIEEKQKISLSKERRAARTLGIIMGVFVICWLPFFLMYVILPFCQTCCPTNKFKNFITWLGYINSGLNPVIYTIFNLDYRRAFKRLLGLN
Assay: [3H]yohimbine saturation binding to membranes of transfected CHO-K1 cells
attributeMeasured: Kd (nM)
Kindly answer with a numeric value in nM, unit omitted.

Record summary for COC(=O)[C@@H]1[C@H]2C[C@H]3c4[nH]c5ccccc5c4CCN3C[C@@H]2CC[C@@H]1O [[^3 H]yohimbine] : reported Kd = 6.2

---

Target: Drosophila octopamine receptor (Drosophila melanogaster, UniProt P22270)
Construct: membranes or whole cells
Assay: [3H]yohimbine competition displacement binding to membranes of transfected CHO-K1 cells
pKi: −log10 of the molar value.
Please enter Fulfilled where pKi is greater than or equal to 4, and Not fulfilled where it is lower.

Worked examples follow.
*Q* Check if pKi >= 4 (inclusive). Item: `Clc1cccc(Cl)c1N=C1NCCN1`
*A* Fulfilled

*Q* Check if pKi >= 4 (inclusive). Item: CNC[C@H](O)c1ccc(O)c(O)c1 [Epinephrine(-), Epinephrine]
*A* Not fulfilled

*Q* Check if pKi >= 4 (inclusive). Item: `CN(C)CCCN1c2ccccc2Sc2ccc(Cl)cc21`
*A* Fulfilled

*Q* Check if pKi >= 4 (inclusive). Item: CNCC(O)c1ccc(O)cc1 (racemic) [Synephrine(±), Synephrine]
*A* Fulfilled

Would you kindly look at the next entry?
*Q* Check if pKi >= 4 (inclusive). Item: `NCCc1c[nH]c2ccc(O)cc12`
*A* Fulfilled
